Every entry's value here was drawn from paper PMC9054546.

- Target system: UniProtKB P22303
- Protocol notes: biochemical
- Condition summary: selectivity index = IC50 (AChE)/IC50 (BChE)
Threshold 0.6: SI(AChE/BChE) strictly smaller gives Met, otherwise Not met.

Challenge: Dear colleague, could you confirm whether SI(AChE/BChE) of CN1CC(c2ccccc2)C2(CC(=O)N(c3ccccc3)C2=O)C12C(=O)Nc1ccc(Cl)cc12 (centres unmarked) [Compound 8b] falls below 0.6? Thanks.
Response given: Met

* * *

- Target system: AChE (Homo sapiens, UniProt P22303)
- Sequence (P22303 32-614): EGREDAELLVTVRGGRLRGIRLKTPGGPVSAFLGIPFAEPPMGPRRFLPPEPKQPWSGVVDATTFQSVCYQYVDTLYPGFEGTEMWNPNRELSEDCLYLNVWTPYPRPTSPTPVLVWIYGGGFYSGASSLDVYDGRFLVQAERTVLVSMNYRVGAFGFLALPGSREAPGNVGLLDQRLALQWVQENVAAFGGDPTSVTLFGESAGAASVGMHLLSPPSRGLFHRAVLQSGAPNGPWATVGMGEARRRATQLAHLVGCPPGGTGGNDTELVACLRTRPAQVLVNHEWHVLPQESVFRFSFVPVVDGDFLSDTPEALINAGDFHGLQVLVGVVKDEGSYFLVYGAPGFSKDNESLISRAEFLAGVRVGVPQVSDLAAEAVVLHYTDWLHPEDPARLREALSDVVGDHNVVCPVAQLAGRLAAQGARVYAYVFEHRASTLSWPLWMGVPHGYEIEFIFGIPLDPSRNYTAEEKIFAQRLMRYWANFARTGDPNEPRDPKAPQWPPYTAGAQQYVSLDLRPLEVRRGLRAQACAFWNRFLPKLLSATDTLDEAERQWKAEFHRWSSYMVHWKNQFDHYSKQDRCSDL
- Protocol notes: 2D-QSAR (BMLR, CODESSA-Pro) model, AChE inhibitors
- Condition summary: observed minus estimated IC50
Quantity measured: Error (difference between observed and estimated property values), AChE BMLR-QSAR model (µM)
Numbers only, in µM.

These solved cases illustrate the format of a correct answer.
COc1ccc2c(c1)C1(C(=O)N2)N(C)CC(c2ccc(Cl)cc2)C12CC(=O)N(c1ccc(Cl)cc1)C2=O (stereo not drawn) :: -7.93
CN1CC(c2ccc(Cl)cc2)C2(CC(=O)N(c3ccc(Cl)cc3)C2=O)C12C(=O)Nc1ccc(Cl)cc12 (stereo not drawn) :: -0.82
COc1ccc(C2CN(C)C3(C(=O)Nc4ccc(Cl)cc43)C23CC(=O)N(c2ccccc2)C3=O)cc1 (stereo not drawn) :: 1.32

Batch request: Error (difference between observed and estimated property values), AChE BMLR-QSAR model per item, same order as input.
1. COc1ccc(C2CN(C)C3(C(=O)Nc4ccc(OC)cc43)C23CC(=O)N(c2ccccc2)C3=O)cc1 (stereo not drawn)
2. CN1CC(c2ccc(Cl)cc2)C2(CC(=O)N(c3ccc(Cl)cc3)C2=O)C12C(=O)Nc1ccccc12 (stereo not drawn)
3. COc1ccc2c(c1)C1(C(=O)N2)N(C)CC(c2ccc(Cl)cc2)C12CC(=O)N(c1ccccc1)C2=O (stereo not drawn)
4. CN1CC(c2ccccc2)C2(CC(=O)N(c3ccccc3)C2=O)C12C(=O)Nc1ccc(Cl)cc12 (stereo not drawn)
5. CN1CC(c2ccccc2)C2(CC(=O)N(c3ccc(Cl)cc3)C2=O)C12C(=O)Nc1ccc(Cl)cc12 (stereo not drawn)
6. CN1CC(c2ccccc2)C2(CC(=O)N(c3ccc(Cl)cc3)C2=O)C12C(=O)Nc1ccccc12 (stereo not drawn)
7. CN1CC(c2ccc(Cl)cc2)C2(CC(=O)N(c3ccccc3)C2=O)C12C(=O)Nc1ccc(Cl)cc12 (stereo not drawn)

Response given:
[-1.78, -0.80, 0.10, 0.13, -3.69, -1.03, 13.92]

Batch request: Error (difference between observed and estimated property values), AChE BMLR-QSAR model per item, same order as input.
1. COc1ccc2c(c1)C1(C(=O)N2)N(C)CC(c2ccccc2)C12CC(=O)N(c1ccccc1)C2=O (stereo not drawn)
2. CN1CC(c2ccccc2)C2(CC(=O)N(c3ccccc3)C2=O)C12C(=O)Nc1ccccc12 (stereo not drawn)

Response given:
[18.50, -13.41]

* * *

- Target system: AChE (Homo sapiens)
- Protocol notes: biochemical
- Condition summary: selectivity index = IC50 (AChE)/IC50 (BChE)
Threshold 1: SI(AChE/BChE) strictly smaller gives YES, otherwise NO.

Take a look at these entries with their results.
CN1CC(c2ccccc2)C2(CC(=O)N(c3ccccc3)C2=O)C12C(=O)Nc1ccccc12 (stereo not shown) :: NO
CN1CC(c2ccccc2)C2(CC(=O)N(c3ccc(Cl)cc3)C2=O)C12C(=O)Nc1ccc(Cl)cc12 (stereo not shown) :: NO

Challenge: Dear colleague, could you confirm whether SI(AChE/BChE) of COc1ccc(C2CN(C)C3(C(=O)Nc4ccc(OC)cc43)C23CC(=O)N(c2ccccc2)C3=O)cc1 (stereo not shown) falls below 1? Thanks.
Response given: YES

Challenge: Dear colleague, could you confirm whether SI(AChE/BChE) of COc1ccc2c(c1)C1(C(=O)N2)N(C)CC(c2ccccc2)C12CC(=O)N(c1ccccc1)C2=O (stereo not shown) falls below 1? Thanks.
Response given: NO

Challenge: Dear colleague, could you confirm whether SI(AChE/BChE) of CN1CC(c2ccc(Cl)cc2)C2(CC(=O)N(c3ccc(Cl)cc3)C2=O)C12C(=O)Nc1ccc(Cl)cc12 (stereo not shown) falls below 1? Thanks.
Response given: NO

Challenge: Dear colleague, could you confirm whether SI(AChE/BChE) of COc1ccc(C2CN(C)C3(C(=O)Nc4ccc(Cl)cc43)C23CC(=O)N(c2ccccc2)C3=O)cc1 (stereo not shown) falls below 1? Thanks.
Response given: YES

Challenge: Dear colleague, could you confirm whether SI(AChE/BChE) of CN1CC(c2ccc(Cl)cc2)C2(CC(=O)N(c3ccccc3)C2=O)C12C(=O)Nc1ccc(Cl)cc12 (stereo not shown) falls below 1? Thanks.
Response given: NO

* * *

- Target system: BChE (Homo sapiens)
- Sequence (P06276 29-602): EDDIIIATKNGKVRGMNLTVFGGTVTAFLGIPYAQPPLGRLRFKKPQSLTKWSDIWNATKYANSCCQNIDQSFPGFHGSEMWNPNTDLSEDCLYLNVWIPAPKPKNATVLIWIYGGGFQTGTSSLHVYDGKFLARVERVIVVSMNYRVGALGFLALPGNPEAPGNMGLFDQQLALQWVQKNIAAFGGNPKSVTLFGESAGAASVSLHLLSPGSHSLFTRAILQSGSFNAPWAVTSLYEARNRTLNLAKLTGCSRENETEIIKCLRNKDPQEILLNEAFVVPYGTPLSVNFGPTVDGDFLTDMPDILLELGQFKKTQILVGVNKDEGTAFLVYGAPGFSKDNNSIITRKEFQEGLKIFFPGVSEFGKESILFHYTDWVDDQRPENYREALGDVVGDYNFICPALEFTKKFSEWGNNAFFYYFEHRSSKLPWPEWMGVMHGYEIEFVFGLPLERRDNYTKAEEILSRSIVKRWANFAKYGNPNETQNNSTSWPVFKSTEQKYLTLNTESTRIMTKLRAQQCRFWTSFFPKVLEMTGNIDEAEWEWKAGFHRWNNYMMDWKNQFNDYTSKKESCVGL
- Protocol notes: biochemical
- Condition summary: log transformation of the observed IC50; read-out: Observed log(IC50, μM), BChE (converted)
Quantity measured: IC50 (µM)
One number for each entry, in µM.

COc1ccc2c(c1)C1(C(=O)N2)N(C)CC(c2ccccc2)C12CC(=O)N(c1ccccc1)C2=O (stereo not drawn) :: 71.7
COc1ccc2c(c1)C1(C(=O)N2)N(C)CC(c2ccc(Cl)cc2)C12CC(=O)N(c1ccccc1)C2=O (stereo not drawn) :: 5.63
CN1CC(c2ccc(Cl)cc2)C2(CC(=O)N(c3ccccc3)C2=O)C12C(=O)Nc1ccc(Cl)cc12 (stereo not drawn) :: 21.3
COc1ccc2c(c1)C1(C(=O)N2)N(C)CC(c2ccc(Cl)cc2)C12CC(=O)N(c1ccc(Cl)cc1)C2=O (stereo not drawn) :: 35.5
COc1ccc(C2CN(C)C3(C(=O)Nc4ccc(Cl)cc43)C23CC(=O)N(c2ccccc2)C3=O)cc1 (stereo not drawn) :: 20.1

Next item in the queue.
Challenge: Query (compound): CN1CC(c2ccccc2)C2(CC(=O)N(c3ccc(Cl)cc3)C2=O)C12C(=O)Nc1ccccc12 (stereo not drawn) ; field requested: IC50
Response given: 5.34

* * *

Give IC50 for every item shown.
- Target system: AChE (Homo sapiens)
- Protocol notes: biochemical
- Condition summary: log transformation of the observed IC50; read-out: Observed log(IC50, μM), AChE (converted)
- Protocol: Butyrylthiocholine iodide and acetylthiocholine were utilized as substrates in BChE and AChE assays, respectively, where DTNB was served as indicator. All compounds were dissolved in MeOH. […] Blank assays were performed by replacing the enzyme (20 μL) with buffer and their absorbances were recorded for correction of the spontaneous lysis of the indicator or inherent color of the inhibitor. […]
In your response, put the unit directly after the numeric value.

These solved cases illustrate the format of a correct answer.
CN1CC(c2ccc(Cl)cc2)C2(CC(=O)N(c3ccccc3)C2=O)C12C(=O)Nc1ccc(Cl)cc12 (stereo not drawn) :: 24.3 µM
COc1ccc2c(c1)C1(C(=O)N2)N(C)CC(c2ccc(Cl)cc2)C12CC(=O)N(c1ccc(Cl)cc1)C2=O (stereo not drawn) :: 22 µM

Challenge: Query (compound): CN1CC(c2ccc(Cl)cc2)C2(CC(=O)N(c3ccc(Cl)cc3)C2=O)C12C(=O)Nc1ccccc12 (stereo not drawn) ; field requested: IC50
Response given: 21 µM

* * *

Give SI(AChE/BChE) for every item shown.
- Target system: AChE (Homo sapiens)
- Protocol notes: biochemical
- Condition summary: selectivity index = IC50 (AChE)/IC50 (BChE)
One number for each entry.

COc1ccc2c(c1)C1(C(=O)N2)N(C)CC(c2ccc(Cl)cc2)C12CC(=O)N(c1ccccc1)C2=O (stereo not shown) :: 0.60

Batch request: SI(AChE/BChE) per item, same order as input.
1. CN1CC(c2ccc(Cl)cc2)C2(CC(=O)N(c3ccc(Cl)cc3)C2=O)C12C(=O)Nc1ccccc12 (stereo not shown)
2. CN1CC(c2ccccc2)C2(CC(=O)N(c3ccc(Cl)cc3)C2=O)C12C(=O)Nc1ccccc12 (stereo not shown)

Response given:
1. 1.54
2. 1.17

Challenge: Query (molecule): COc1ccc2c(c1)C1(C(=O)N2)N(C)CC(c2ccc(Cl)cc2)C12CC(=O)N(c1ccc(Cl)cc1)C2=O (stereo not shown) ; field requested: SI(AChE/BChE)
Response given: 0.62
